# measured.target: huCTLA4 (Homo sapiens, UniProt P16410)
# Sequence (P16410 36-223): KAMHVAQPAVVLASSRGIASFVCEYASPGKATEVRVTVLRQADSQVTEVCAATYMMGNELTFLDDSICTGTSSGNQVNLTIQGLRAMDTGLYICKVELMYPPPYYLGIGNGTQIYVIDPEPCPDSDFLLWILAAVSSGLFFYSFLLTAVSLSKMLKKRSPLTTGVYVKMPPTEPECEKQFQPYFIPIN
# assay.overview: Flow binding to CHO cells stably expressing CTLA4
# Design: huCTLA4 and huPD-L1, full-length mammalian surface expression constructs were generated; expressed in transfected cells; host or cells: CHO cells, lentiviral transduction, sorted to >98% purity
# experimental.context: Table E19; CHO cells stably expressing CTLA4; 33.3 nM
metric.name: CTLA4 MFI at 33.3 nM
Reply: number alone, nothing else.

get_value(item= E35D/K89N (protein) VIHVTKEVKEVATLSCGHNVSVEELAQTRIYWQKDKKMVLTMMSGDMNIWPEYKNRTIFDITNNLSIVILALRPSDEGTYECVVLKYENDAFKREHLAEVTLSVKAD , readout=CTLA4 MFI at 33.3 nM) returns 21755

Entry M47V/N48K/K89N (protein) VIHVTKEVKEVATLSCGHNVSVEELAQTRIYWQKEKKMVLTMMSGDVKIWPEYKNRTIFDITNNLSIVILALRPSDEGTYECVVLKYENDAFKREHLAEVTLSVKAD , CTLA4 MFI at 33.3 nM reported as 42071

Recorded result, D46V/V68M (protein) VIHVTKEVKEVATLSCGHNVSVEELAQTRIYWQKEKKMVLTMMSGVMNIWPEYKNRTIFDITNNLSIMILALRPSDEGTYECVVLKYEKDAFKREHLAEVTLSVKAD , CTLA4 MFI at 33.3 nM: 5334

Sure, the documented CTLA4 MFI at 33.3 nM for E35D/D46V/M47L/V68M/L85Q (protein) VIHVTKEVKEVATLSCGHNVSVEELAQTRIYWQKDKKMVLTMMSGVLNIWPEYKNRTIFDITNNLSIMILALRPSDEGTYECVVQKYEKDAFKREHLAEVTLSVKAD is 26207
